Data origin: patent US8778935B2

Target: PI3K (p110α/p85α) (Homo sapiens)
Construct: purchased Carna Biosciences 07CBS-0402A
Sequence (P42336 whole entry): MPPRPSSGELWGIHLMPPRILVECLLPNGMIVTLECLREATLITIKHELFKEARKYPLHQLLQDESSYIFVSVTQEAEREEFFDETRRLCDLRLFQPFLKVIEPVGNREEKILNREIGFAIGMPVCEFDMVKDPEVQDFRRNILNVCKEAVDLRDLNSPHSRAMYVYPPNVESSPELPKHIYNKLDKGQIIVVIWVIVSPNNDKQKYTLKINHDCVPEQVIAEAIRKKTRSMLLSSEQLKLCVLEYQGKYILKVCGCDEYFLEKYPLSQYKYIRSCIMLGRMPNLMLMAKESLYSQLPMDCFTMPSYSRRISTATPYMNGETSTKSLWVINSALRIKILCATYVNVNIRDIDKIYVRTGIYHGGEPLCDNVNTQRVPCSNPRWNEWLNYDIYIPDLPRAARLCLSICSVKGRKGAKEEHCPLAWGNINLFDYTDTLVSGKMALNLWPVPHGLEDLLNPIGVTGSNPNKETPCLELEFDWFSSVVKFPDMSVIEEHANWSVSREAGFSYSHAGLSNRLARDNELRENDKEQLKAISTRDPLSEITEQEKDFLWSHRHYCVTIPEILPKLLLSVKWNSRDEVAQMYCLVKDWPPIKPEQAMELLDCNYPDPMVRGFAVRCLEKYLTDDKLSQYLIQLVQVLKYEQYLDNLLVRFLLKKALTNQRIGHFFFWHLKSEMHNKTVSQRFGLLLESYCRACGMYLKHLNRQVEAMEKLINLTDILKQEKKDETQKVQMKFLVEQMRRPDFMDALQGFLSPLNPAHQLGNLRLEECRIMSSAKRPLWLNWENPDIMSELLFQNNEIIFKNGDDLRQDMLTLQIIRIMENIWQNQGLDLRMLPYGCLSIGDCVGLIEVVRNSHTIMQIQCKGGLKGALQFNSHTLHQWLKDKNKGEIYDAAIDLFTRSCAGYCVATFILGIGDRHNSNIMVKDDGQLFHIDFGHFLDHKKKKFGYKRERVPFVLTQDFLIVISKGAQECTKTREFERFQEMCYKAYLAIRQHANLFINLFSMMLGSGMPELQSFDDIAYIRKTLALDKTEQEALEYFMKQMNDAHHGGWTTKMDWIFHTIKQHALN
Sequence (P27986 whole entry partner): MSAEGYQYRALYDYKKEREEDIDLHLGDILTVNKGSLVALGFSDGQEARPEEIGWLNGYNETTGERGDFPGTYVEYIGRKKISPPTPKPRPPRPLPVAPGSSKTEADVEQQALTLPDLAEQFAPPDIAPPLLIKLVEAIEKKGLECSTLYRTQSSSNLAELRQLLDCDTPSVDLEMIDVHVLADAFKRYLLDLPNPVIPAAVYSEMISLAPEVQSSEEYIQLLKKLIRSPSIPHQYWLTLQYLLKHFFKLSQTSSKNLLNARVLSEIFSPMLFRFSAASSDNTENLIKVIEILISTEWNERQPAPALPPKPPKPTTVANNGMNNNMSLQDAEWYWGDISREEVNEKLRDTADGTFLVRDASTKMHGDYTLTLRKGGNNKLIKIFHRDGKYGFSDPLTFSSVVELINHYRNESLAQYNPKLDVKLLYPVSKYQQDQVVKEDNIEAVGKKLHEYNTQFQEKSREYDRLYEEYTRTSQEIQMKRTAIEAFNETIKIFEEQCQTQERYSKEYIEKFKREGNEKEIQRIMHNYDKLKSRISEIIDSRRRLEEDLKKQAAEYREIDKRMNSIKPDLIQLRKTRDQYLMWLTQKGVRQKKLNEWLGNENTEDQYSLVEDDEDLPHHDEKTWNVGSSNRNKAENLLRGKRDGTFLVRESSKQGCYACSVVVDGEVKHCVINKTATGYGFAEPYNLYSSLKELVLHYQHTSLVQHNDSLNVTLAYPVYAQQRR
Test: PI3K Activity Assay (ADP Hunter Plus)
Format: biochemical
Details: PI3Kα activity, quantitative results; read-out: PI3Kα IC50
Rule for this label: fulfilled means IC50 is less than 100 nM; not fulfilled means IC50 is at least 100 nM.

See these solved cases before continuing.
[
  {
    "compound": "CC(=O)O[C@H](C)C(=O)N1CCN(Cc2cn3cc(-c4cnc(N)nc4)nc(N4CCOCC4)c3n2)CC1 [2-231]",
    "group.label": "fulfilled"
  },
  {
    "compound": "Nc1ncc(-c2cn3cc(CN4CCC(O)CC4)nc3c(N3CCOCC3)n2)cn1 [2-229]",
    "group.label": "not fulfilled"
  },
  {
    "compound": "Nc1ncc(-c2cn3cc(CN4CCNCC4)nc3c(N3CCOCC3)n2)cn1 [2-226]",
    "group.label": "fulfilled"
  },
  {
    "compound": "Cc1cnc2c(N3CCOCC3)nc(-c3ccc(NC(=O)Nc4cccc(C(=O)O)c4)cc3)cn12 [2-244]",
    "group.label": "not fulfilled"
  }
]

Turning to the following compound.
Please state whether IC50 is below 100 nM for Nc1ncc(-c2cn3cc(CN4CCOCC4)nc3c(N3CCOCC3)n2)cn1 [2-175] fulfilled
